# tested on: PCSK9 (Homo sapiens (Human))
# Sequence (Q8NBP7 153-692): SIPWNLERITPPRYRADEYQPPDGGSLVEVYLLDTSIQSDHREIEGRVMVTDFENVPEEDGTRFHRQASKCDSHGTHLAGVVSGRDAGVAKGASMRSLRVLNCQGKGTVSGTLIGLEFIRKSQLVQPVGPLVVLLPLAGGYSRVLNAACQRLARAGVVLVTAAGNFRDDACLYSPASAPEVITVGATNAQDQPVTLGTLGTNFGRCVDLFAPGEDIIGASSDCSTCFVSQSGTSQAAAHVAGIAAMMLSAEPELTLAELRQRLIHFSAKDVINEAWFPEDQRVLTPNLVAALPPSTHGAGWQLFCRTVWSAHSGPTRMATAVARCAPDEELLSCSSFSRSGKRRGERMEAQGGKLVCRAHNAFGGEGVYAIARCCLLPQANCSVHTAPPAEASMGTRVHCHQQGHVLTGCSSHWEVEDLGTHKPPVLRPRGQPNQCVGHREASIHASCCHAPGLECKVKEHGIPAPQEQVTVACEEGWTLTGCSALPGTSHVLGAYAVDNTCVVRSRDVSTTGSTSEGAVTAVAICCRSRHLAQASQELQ
# experiment: PCSK9 Alexa FRET Standard assay (displacement of AlexaFluor647 tagged cyclic peptide Reagent A)
# Type: binding
# condition details: PCSK9 Alexa FRET Standard assay, 0.5 nM PCSK9, 20 nM AF cyclic peptide Reagent A; read-out: IC50
Starred links: 1 amine or outer side, 2 acyl side, 3 side chain; linkers in the order of their positions; H or OH if unused. Positions of bridges follow the written chain, without caps; N, C: chain ends. Non-standard residues stand in square brackets, D forms with d. Residues, ends and D or L forms follow the SMILES beside them. Trp(5-F) = N[C@@H](Cc1c[nH]c2ccc(F)cc12)C(=O)O; dPro(cis-4-NH2) = N[C@H]1CN[C@@H](C(=O)O)C1; X3 = O=C(CCSCc1cc(F)cc(CSCCN[*:1])c1)[*:2]; Pro(cis-4-F) = O=C(O)[C@@H]1C[C@H](F)CN1; X27 = O=C([C@@H](N[*:1])C1(O)CC1)[*:2]; mXylylene = c1cc(C[*:1])cc(C[*:2])c1; AEF = NCCOc1ccc(C[C@H](N)C(=O)O)cc1; Glutaryl = O=C(CCCC(=O)[*:2])[*:1]; Val(3-OH) = CC(C)(O)[C@H](N)C(=O)O; αMeP = C[C@@]1(C(=O)O)CCCN1; Dap = NC[C@H](N)C(=O)O; X2 = O=C(C[*:2])[*:1]; Mpa = O=C(O)CCS
# IC50 annotations
measured attribute: IC50

>>> experimental_result("COc1ccc(C[C@@H]2NC(=O)[C@H]([C@@H](C)O)NC(=O)[C@@H]3C[C@H](F)CN3C(=O)[C@H](Cc3c[nH]c4ccc(F)cc34)NC(=O)[C@H](Cc3c[nH]c4ccc(F)cc34)NC(=O)[C@@H](C)NC(=O)CCCC(=O)NCCOc3ccc(cc3)C[C@@H](C(N)=O)NC(=O)[C@]3(C)CCCN3C2=O)cc1 [Compound 081] ([dA][Trp(5-F)][Trp(5-F)][Pro(cis-4-F)]TY(Me)[αMeP][AEF]-NH2; linker N-8 via Glutaryl)")
"0.1 to 1 µM"
>>> experimental_result("C[C@@]12CCCN1C(=O)[C@H](Cc1ccc(O)cc1)NC(=O)[C@H](Cc1cnc[nH]1)NC(=O)[C@H](CC(=O)O)NC(=O)[C@H](Cc1c[nH]c3ccc(F)cc13)NC(=O)[C@H](Cc1c[nH]c3ccc(F)cc13)NC(=O)CNC(=O)[C@H](C1(O)CC1)NC(=O)CCSCc1cccc(c1)CSC[C@@H](C(N)=O)NC2=O [Compound 372] ([Mpa][X27]G[Trp(5-F)][Trp(5-F)]DHY[αMeP]C-NH2; linker 1-10 via mXylylene)")
"0.1 to 1 µM"
>>> experimental_result("COc1ccc(C[C@@H]2NC(=O)[C@@H]([C@H](C)O)NC(=O)[C@H]3C[C@@H](N)CN3C(=O)[C@H](Cc3c[nH]c4ccc(F)cc34)NC(=O)[C@H](Cc3c[nH]c4ccc(F)cc34)NC(=O)[C@@H](C)NC(=O)[C@H](CCCCN)NC(=O)CCSCc3cc(F)cc(c3)CSCCNC(=O)[C@]3(C)CCCN3C2=O)cc1 [Compound 082] (cyclo(K[dA][Trp(5-F)][Trp(5-F)][dPro(cis-4-NH2)][dT]Y(Me)[αMeP][X3]))")
"0.1 to 1 µM"
>>> experimental_result("COc1ccc(C[C@@H]2NC(=O)[C@H]([C@@H](C)O)NC(=O)[C@@H]3C[C@H](F)CN3C(=O)[C@H](Cc3c[nH]c4ccc(F)cc34)NC(=O)[C@H](Cc3c[nH]c4ccc(F)cc34)NC(=O)[C@@H](C)NC(=O)[C@H](CCCCN)NC(=O)[C@@H](NC(C)=O)CNC(=O)COc3ccc(cc3)C[C@@H](C(N)=O)NC(=O)[C@]3(C)CCCN3C2=O)cc1 [Compound 094] (Ac-[Dap]K[dA][Trp(5-F)][Trp(5-F)][Pro(cis-4-F)]TY(Me)[αMeP]Y-NH2; linker 1-10 via X2)")
"21 to 50 µM"
>>> experimental_result("CC(C)(O)[C@@H]1NC(=O)CCSCc2cccc(c2)CSC[C@@H](C(N)=O)NC(=O)[C@]2(C)CCCN2C(=O)[C@H](Cc2ccc(O)cc2)NC(=O)[C@H](Cc2cnc[nH]2)NC(=O)[C@H](CC(=O)O)NC(=O)[C@H](Cc2c[nH]c3ccc(F)cc23)NC(=O)[C@H](Cc2c[nH]c3ccc(F)cc23)NC(=O)CNC1=O [Compound 374] ([Mpa][Val(3-OH)]G[Trp(5-F)][Trp(5-F)]DHY[αMeP]C-NH2; linker 1-10 via mXylylene)")
"0.1 to 1 µM"
